Quick reference: P50 increase (%) + SD of the listed items.
target_system: murine free Hb (Mus musculus, UniProt P01942+P02088)
Sequence (P01942 2-142 limits assumed): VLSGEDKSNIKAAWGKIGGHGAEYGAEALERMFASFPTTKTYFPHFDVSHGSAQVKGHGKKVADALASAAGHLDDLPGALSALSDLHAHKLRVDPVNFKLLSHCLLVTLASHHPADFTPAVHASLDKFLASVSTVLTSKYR
Sequence (P02088 2-147 limits assumed): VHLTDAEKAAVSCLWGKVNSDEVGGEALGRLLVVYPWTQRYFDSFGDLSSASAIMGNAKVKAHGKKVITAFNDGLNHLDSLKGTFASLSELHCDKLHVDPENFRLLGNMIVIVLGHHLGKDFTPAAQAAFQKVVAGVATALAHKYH
protocol: P50 of murine free Hb after incubation with compound (HEMOX analyzer)
Assay type: biochemical
condition_summary: murine free Hb; compound solution 60 mM
Value expressed in %; do not type the unit.

Worked set:
molecule	target_system	reported_endpoint	unit_name	observed
O=P1(O)OP(=O)(O)O[C@H]2[C@H](O1)[C@@H]1OP(=O)(O)OP(=O)(O)O[C@@H]1[C@H]1OP(=O)(O)OP(=O)(O)O[C@H]21.c1ccncc1.c1ccncc1.c1ccncc1.c1ccncc1.c1ccncc1.c1ccncc1 (racemic) [Compound 4, pyridinium salt of ITPP]	murine free Hb (Mus musculus, UniProt P01942+P02088)	P50 increase (%) + SD	%	100
O=P1([O-])OP(=O)([O-])O[C@H]2[C@H](O1)[C@@H]1OP(=O)([O-])OP(=O)([O-])O[C@@H]1[C@H]1OP(=O)([O-])OP(=O)([O-])O[C@H]21.[Na+].[Na+].[Na+].[Na+].[Na+].[Na+] (racemic)	murine free Hb (Mus musculus, UniProt P01942+P02088)	P50 increase (%) + SD	%	180
NC1CCCCCCC1.NC1CCCCCCC1.NC1CCCCCCC1.NC1CCCCCCC1.NC1CCCCCCC1.NC1CCCCCCC1.O=P1(O)OP(=O)(O)O[C@H]2[C@H](O1)[C@@H]1OP(=O)(O)OP(=O)(O)O[C@@H]1[C@H]1OP(=O)(O)OP(=O)(O)O[C@H]21 (racemic) [Compound 12, cyclooctyl ammonium salt of ITPP]	murine free Hb (Mus musculus, UniProt P01942+P02088)	P50 increase (%) + SD	%	23

Query molecule follows.
Returns the measured P50 increase (%) + SD for the input molecule. Input: NC1CCCCCC1.NC1CCCCCC1.NC1CCCCCC1.NC1CCCCCC1.NC1CCCCCC1.NC1CCCCCC1.O=P1(O)OP(=O)(O)O[C@H]2[C@H](O1)[C@@H]1OP(=O)(O)OP(=O)(O)O[C@@H]1[C@H]1OP(=O)(O)OP(=O)(O)O[C@H]21 (racemic) [Compound 11, cycloheptyl ammonium salt of ITPP]
71
